- experiment description: Binding affinity to up to 1 uM c-MYC promoter G-quadruplex pu22 DNA (unknown origin) after 1 min by fluorescence titration method
metric: Kd (nM)
Numbers only, in nM.

-- ask # get_value(readout='Kd', item= "CCn1c2ccccc2c2cc(-c3nc(-c4ccc(N5CCN(C)CC5)cc4)c(-c4ccc(N5CCN(C)CC5)cc4)n3-c3ccc(OC)cc3)ccc21" )
-- reply 100

Values compiled from ChEMBL document CHEMBL4033789.
